Test system: MDA-MB-468 breast
procedure.summary: NCI tumour cell line growth inhibition, 48 h; in the data active = GI50 below about 0.43 µM; inactive = the rest
Outcome codes: active, inactive

{"compound": "C=C1C(=O)O[C@H]2[C@H]1CC/C(Cn1cc(CNC(=O)Cc3cn(C(=O)c4ccc(Cl)cc4)c4ccc(OC)cc34)nn1)=C\\CC[C@@]1(C)O[C@@H]21", "assigned.label": "inactive"}
{"compound": "Cc1ccc(-[n+]2c3cc(N)c(C)cc3nc3cc(C)c(Nc4ccccc4)cc32)cc1", "assigned.label": "active"}
{"compound": "CCOC(=O)c1ccc(NC(=O)N2CC(C)OC(C)C2)cc1 (centres undefined)", "assigned.label": "inactive"}
{"compound": "Cc1ccc2[nH]cc(-c3nc(-c4c[nH]c5ncccc45)cs3)c2c1", "assigned.label": "inactive"}
{"compound": "O=[N+]([O-])C1C(c2ccccc2)C12c1ccccc1-c1ccccc12 (centres undefined)", "assigned.label": "inactive"}
{"compound": "COC(=O)N[C@H]1CCc2c(Br)c(OC)c(OC)c(OC)c2-c2ccc(SC)c(=O)cc21", "assigned.label": "active"}
{"compound": "CN(C)c1cccc2c(S(=O)(=O)N[C@H]3CC[C@H]4[C@@H]5CCc6cc(O)ccc6[C@H]5CC[C@]34C)cccc12", "assigned.label": "inactive"}
{"compound": "COc1ccc(Cl)cc1Nc1nc(C(F)(F)F)ccc1C(=O)N/N=C/c1c(Cl)cccc1Cl", "assigned.label": "inactive"}
{"compound": "COCCOc1ccc2ncc(C#Cc3cncc(C(=O)Nc4ccc(CN5CCN(C)CC5)c(C(F)(F)F)c4)c3)n2n1", "assigned.label": "inactive"}

---

// reported TGI for each item listed
Test system: UACC-62 melanoma
procedure.summary: NCI tumour cell line growth inhibition, 48 h

{"compound.string": "CN(CCO)c1oc(-c2ccccc2)nc1[P+](c1ccccc1)(c1ccccc1)c1ccccc1", "qual": "=", "TGI (µM)": 5.97}
{"compound.string": "O=C(Nc1cccc(-c2cn(-c3ccc4oc(=O)ccc4c3)nn2)c1)Nc1cc(C(F)(F)F)cc(C(F)(F)F)c1", "qual": ">", "TGI (µM)": 100}
{"compound.string": "COc1cc(OC)c(S(=O)(=O)N(CCCl)CCCl)cc1C(=O)/C=C/c1cc(OC)c(OC)c(OC)c1", "qual": "=", "TGI (µM)": 4.94}
{"compound.string": "FC(F)(F)c1cc2c(Cl)ncnc2n1CCC1CCOCC1", "qual": "=", "TGI (µM)": 15.7}

---

System: MDA-MB-468 breast
procedure.summary: NCI tumour cell line growth inhibition, 48 h; in the data active means GI50 below about 0.43 µM; inactive means the rest
Outcome codes: active, inactive

{"compound": "COc1ccc2nc(N/N=C(\\C)c3ccccn3)cc(C)c2c1", "assigned.label": "active"}
{"compound": "O=C(Nc1ccc(N2CCNCC2)cc1)c1[nH]ncc1Nc1ncnc2sc3c(c12)CCC3", "assigned.label": "inactive"}
{"compound": "COc1cc(C2C=C(c3cccc(NC(C)=O)c3)Nc3ncnn32)cc(OC)c1OC (stereo not given)", "assigned.label": "inactive"}
{"compound": "C=C1C(=O)O[C@H]2[C@H]1CC/C(COC(=O)c1cc3cc(F)ccc3[nH]1)=C\\CC[C@@]1(C)O[C@@H]21", "assigned.label": "inactive"}
{"compound": "O=c1oc2cc(OS(=O)(=O)c3ccc(F)cc3)ccc2c2c1CCCCC2", "assigned.label": "inactive"}
